Target: human recombinant dopamine D4.2 receptor (Homo sapiens, UniProt P21917, DEL265-296)
Construct: expressed in transfected cells
Sequence (P21917 with tags, fused parts or gaps DEL265-296): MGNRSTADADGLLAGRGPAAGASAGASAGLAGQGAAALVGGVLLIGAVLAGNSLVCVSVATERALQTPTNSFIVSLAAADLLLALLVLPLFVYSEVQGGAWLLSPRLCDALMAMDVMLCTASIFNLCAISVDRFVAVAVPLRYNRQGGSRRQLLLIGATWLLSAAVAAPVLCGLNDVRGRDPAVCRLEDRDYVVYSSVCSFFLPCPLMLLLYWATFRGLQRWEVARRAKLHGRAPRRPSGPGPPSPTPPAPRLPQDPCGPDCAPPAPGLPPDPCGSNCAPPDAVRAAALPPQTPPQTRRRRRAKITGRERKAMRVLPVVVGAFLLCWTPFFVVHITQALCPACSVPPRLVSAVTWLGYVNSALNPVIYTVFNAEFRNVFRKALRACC
Experiment: Receptor binding assay, D4.2 ([^3 H]spiperone)
pKi: −log10 of the molar value. Structures can show the parent of a compound that is named as a salt.
// classify(record): look up pKi in ranges L: < 7; M: ≥ 7 and < 8; H: ≥ 8

MOLECULE: c1ccc(OCCCNCCOc2ccc3occc3c2)cc1 [Example 3b, hydrochloride]
CLASS: H
//
MOLECULE: O=c1ccc2cc(CNCCNc3ccccc3)ccc2o1
CLASS: L
//
MOLECULE: Cc1ccc(OCCCNCc2ccc3ccc(=O)oc3c2)cc1
CLASS: L
//
MOLECULE: O=c1ccc2ccc(CNCCCNc3ccccc3)cc2o1
CLASS: M
//
MOLECULE: O=c1ccc2ccc(CNCCNc3cccc(Cl)c3)cc2o1 [Example 4d, dihydrochloride]
CLASS: M

Request: // return the class label for O=c1ccc2ccc(CNCCCc3ccccc3)cc2o1
Result: M

Request: // return the class label for Cc1ccc(OCCNCc2ccc3ccc(=O)oc3c2)cc1
Result: H

Request: // return the class label for Cc1cc(=O)oc2cc(OCCNCCCOc3ccccc3)ccc12 [Example 3, Hydrochloride]
Result: H

* * *

I'd appreciate it if you could supply Ki values for the items below.
Target: human recombinant dopamine D4.2 receptor (Homo sapiens, UniProt P21917, DEL265-296)
Assay: Receptor binding assay, D4.2 ([^3 H]spiperone)
Where a name gives a salt, the structure may show the parent alone.
Numbers only, in nM.

Before answering, review these 4 worked examples.
COMPOUND: O=c1ccc2ccc(OCCNCCCOc3ccccc3)cc2o1 [Example 2c, hydrochloride]
Ki, nM: 1.6
//
COMPOUND: O=c1ccc2ccc(CNCCOc3ccc(Cl)cc3)cc2o1
Ki, nM: 9.5
//
COMPOUND: c1ccc(OCCCNCCOc2ccc3ncccc3c2)cc1 [Example 2a, hydrochloride]
Ki, nM: 12.8
//
COMPOUND: O=c1ccc2ccc(CNCCSc3ccccc3)cc2o1 [Example 4p, hydrochloride]
Ki, nM: 394

The record that follows has no Ki shown yet.
Request: Reported Ki, compound O=c1ccc2ccc(CNCCOc3ccccc3)cc2o1 : ____
Result: 43

* * *

Target: human recombinant dopamine D4.2 receptor (Homo sapiens, UniProt P21917, DEL265-296)
Experiment: Receptor binding assay, D4.2 ([^3 H]spiperone)
Counter-ions that a name gives are not always drawn.
MEASURE: pKi
Numbers only, as −log10 of the molar value.

Before answering, review these 3 worked examples.
COMPOUND: Cc1ccc(OCCNCc2ccc3oc(=O)ccc3c2)cc1
MEASURE: pKi
OBS_VALUE: 7.62
//
COMPOUND: O=c1ccc2cc(CNCCOc3ccccc3)ccc2o1 [Example 4j, hydrochloride]
MEASURE: pKi
OBS_VALUE: 7.19
//
COMPOUND: O=c1ccc2cc(CNCCCOc3ccccc3)ccc2o1
MEASURE: pKi
OBS_VALUE: 7.70

// for each compound below, give its pKi
1. c1ccc(OCCCNCCOc2ccc3oc4ccccc4c3c2)cc1 [Example 2d, hydrochloride]
2. O=c1ccc2cc(CNCCOc3ccc(Cl)cc3)ccc2o1

Result:
7.10
7.87

Request: Reported pKi, compound Cc1cc(=O)oc2ccc(OCCNCCCOc3ccccc3)cc12 [Example 3a, hydrochloride] : ____
Result: 7.15
